Target: Human BCL-XL protein (N-terminal HiBiT tagged BCL-XL in HT1080 cells) (Homo sapiens, UniProt Q07817)
Construct: expressed in transfected cells; host or cells: HT-1080 (ATCC CCL-121), stably transduced with lentivirus pLV-UBC-N-HiBiT-BCL-XL-PGK-puro and selected with puromycin
Sequence (Q07817 whole entry): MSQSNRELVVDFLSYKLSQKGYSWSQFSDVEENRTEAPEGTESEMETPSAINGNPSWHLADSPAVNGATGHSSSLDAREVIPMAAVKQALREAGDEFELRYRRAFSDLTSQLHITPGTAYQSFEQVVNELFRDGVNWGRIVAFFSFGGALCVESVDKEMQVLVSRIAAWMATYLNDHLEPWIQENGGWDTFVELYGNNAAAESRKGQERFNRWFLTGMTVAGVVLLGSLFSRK
Test: HiBiT based degradation assay
Type: cell-based
Conditions: BCL-XL degradation normalized with DMSO control; HT1080 cells expressing HiBiT-BCL-XL; 24 h
measurement-label: Ymin (24 h)

INSERT INTO assay_data (compound, assay_value) VALUES
  ('Cc1cc(OCCCN2C[C@@H](C)N(CC(=O)N3CCN(c4cccc5c(C6CCC(=O)NC6=O)nn(C)c45)CC3)[C@@H](C)C2)ccc1-c1ccc(N2CCc3cccc(C(=O)Nc4nc5ccccc5s4)c3C2)nc1C(=O)O (stereo partly shown) [Compound 183a]', 'A (Ymin < 50%)'),
  ('Cc1c(O[C@H]2CC[C@H](CCCN3CCC(c4cccc5c(C6CCC(=O)NC6=O)nn(C)c45)CC3)CC2)cccc1-c1ccc(N2CCc3cccc(C(=O)Nc4nc5ccccc5s4)c3C2)nc1C(=O)O (stereo partly shown) [Compound 270a]', 'A (Ymin < 50%)'),
  ('Cc1c(OCCC2CCN(CC(=O)N3CCN(c4ccc5c(C6CCC(=O)NC6=O)nn(C)c5c4)CC3)CC2)cccc1-c1ccc(N2CCc3cccc(C(=O)Nc4nc5ccccc5s4)c3C2)nc1C(=O)O (stereo not shown)', 'A (Ymin < 50%)'),
  ('Cc1c(O[C@H]2CC[C@H](CCCN3CC[C@@H](c4ccc5c(C6CCC(=O)NC6=O)nn(C)c5c4)C3)CC2)cccc1-c1ccc(N2CCc3cccc(C(=O)Nc4nc5ccccc5s4)c3C2)nc1C(=O)O (single isomer, unassigned) [Compound 331b]', 'A (Ymin < 50%)');

----------
Molecular target: Human BCL-XL protein (N-terminal HiBiT tagged BCL-XL in HT1080 cells) (Homo sapiens)
Construct: expressed in transfected cells; host or cells: HT-1080 (ATCC CCL-121), stably transduced with lentivirus pLV-UBC-N-HiBiT-BCL-XL-PGK-puro and selected with puromycin
Assay: HiBiT based degradation assay
Type: cell-based
Settings: BCL-XL degradation normalized with DMSO control; HT1080 cells expressing HiBiT-BCL-XL; 24 h
measurement-label: Ymin (24 h)

INSERT INTO measurements (molecule, assay_value) VALUES
  ('Cc1c(O[C@H]2CC[C@H](CCCC(C)(C)N3CCN(c4cccc5c(C6CCC(=O)NC6=O)nn(C)c45)CC3)CC2)cccc1-c1ccc(N2CCc3cccc(C(=O)Nc4nc5ccccc5s4)c3C2)nc1C(=O)O (stereo partly shown) [Compound 342a]', 'A (Ymin < 50%)'),
  ('Cc1c(O[C@H]2CC[C@H](CC[C@@H](C)N3CCN(c4ccc5c(C6CCC(=O)NC6=O)nn(C)c5c4)CC3)CC2)cccc1-c1ccc(N2CCc3cccc(C(=O)Nc4nc5ccccc5s4)c3C2)nc1C(=O)O (single isomer, unassigned) [Compound 281b]', 'A (Ymin < 50%)'),
  ('Cc1c(O[C@H]2CC[C@H](CCCCN3CC[C@@H](c4cccc5c(C6CCC(=O)NC6=O)nn(C)c45)C3)CC2)cccc1-c1ccc(N2CCc3cccc(C(=O)Nc4nc5ccccc5s4)c3C2)nc1C(=O)O (single isomer, unassigned) [Compound 321b]', 'A (Ymin < 50%)');
